From: ChEMBL document CHEMBL5291721

AC50 tested on Estrogen receptor (Homo sapiens): recorded values; note: assay procedure not described here
Sequence (P03372 whole entry): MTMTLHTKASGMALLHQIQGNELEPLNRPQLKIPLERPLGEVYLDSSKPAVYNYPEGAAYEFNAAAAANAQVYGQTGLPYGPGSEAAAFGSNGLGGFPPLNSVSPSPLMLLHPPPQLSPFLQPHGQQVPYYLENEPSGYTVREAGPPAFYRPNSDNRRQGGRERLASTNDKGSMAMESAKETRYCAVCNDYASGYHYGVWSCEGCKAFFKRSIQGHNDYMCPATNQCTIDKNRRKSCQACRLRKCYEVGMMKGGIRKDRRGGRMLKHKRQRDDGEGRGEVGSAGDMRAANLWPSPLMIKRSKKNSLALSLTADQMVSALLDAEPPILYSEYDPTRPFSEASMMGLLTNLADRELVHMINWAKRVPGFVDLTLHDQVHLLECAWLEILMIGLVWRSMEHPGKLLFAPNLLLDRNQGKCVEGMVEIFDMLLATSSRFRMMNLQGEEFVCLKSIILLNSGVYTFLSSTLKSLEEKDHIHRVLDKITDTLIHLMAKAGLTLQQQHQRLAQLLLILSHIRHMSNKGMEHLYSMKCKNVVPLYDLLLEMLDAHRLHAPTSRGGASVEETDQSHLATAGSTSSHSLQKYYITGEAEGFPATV

Previously resolved entries follow.
[[record]]
compound = "CCCC(CCC)C(N)=O [VALPROMIDE]"
result = "> 30 µM"

[[record]]
compound = "C=C[C@@]1(C)CC(=O)[C@]2(O)[C@@]3(C)[C@@H](O)CCC(C)(C)[C@@H]3[C@H](O)[C@H](OC(C)=O)[C@@]2(C)O1"
result = "> 30 µM"

[[record]]
compound = "CCOC(=O)C1=C(C)NC(C)=C(C(=O)OC)C1c1cccc([N+](=O)[O-])c1 (centres undefined)"
result = "> 30 µM"


Query string: Value wanted: AC50 (Estrogen receptor (Homo sapiens)) of entry C/C(=C\C(=O)OCCCCCCCCC(=O)O)C[C@@H]1OC[C@H](C[C@@H]2O[C@H]2[C@@H](C)[C@H](C)O)[C@@H](O)[C@H]1O
Result string: > 10 µM

----------
Values of AC50 reported for Histamine H3 receptor (Homo sapiens, UniProt Q9Y5N1) appear below.

# count of solved cases: 8
[[record]]
compound = "NC(=O)CN1CCCC1=O"
parametermeasured = "AC50"
result = "> 30 µM"

[[record]]
compound = "CCCN[C@H]1CCc2nc(N)sc2C1 [PRAMIPEXOLE]"
parametermeasured = "AC50"
result = "> 10 µM"

[[record]]
compound = "Cc1cc(C(C)(C)C)cc(C)c1CC1=NCCN1"
parametermeasured = "AC50"
result = "6.9 µM"

[[record]]
compound = "C[C@H](Cc1ccc(O)c(O)c1)[C@@H](C)Cc1ccc(O)c(O)c1"
parametermeasured = "AC50"
result = "> 10 µM"

[[record]]
compound = "CCCC(CCC)C(N)=O [VALPROMIDE]"
parametermeasured = "AC50"
result = "> 10 µM"

[[record]]
compound = "CCCCCC(=O)O[C@]1(C(C)=O)CC[C@H]2[C@@H]3CCC4=CC(=O)CC[C@]4(C)[C@H]3CC[C@@]21C [HYDROXYPROGESTERONE CAPROATE]"
parametermeasured = "AC50"
result = "> 30 µM"

[[record]]
compound = "Clc1ccc2c(N3CCN(CCCN4CCN(c5ccnc6cc(Cl)ccc56)CC4)CC3)ccnc2c1"
parametermeasured = "AC50"
result = "6.1 µM"

[[record]]
compound = "C/C(=C\\C(=O)OCCCCCCCCC(=O)O)C[C@@H]1OC[C@H](C[C@@H]2O[C@H]2[C@@H](C)[C@H](C)O)[C@@H](O)[C@H]1O"
parametermeasured = "AC50"
result = "> 10 µM"


Query string: What measured AC50 goes with CC(=O)O[C@H](CC(=O)[O-])C[N+](C)(C)C ?
Result string: > 30 µM

Query string: Try this compound next: CCN(CC)CCNC(=O)c1cc(S(C)(=O)=O)ccc1OC [TIAPRIDE]
Result string: > 30 µM

----------
- testedTarget: Muscarinic acetylcholine receptor M2 (Homo sapiens, UniProt P08172); note: assay procedure not described here
- Sequence (P08172 whole entry): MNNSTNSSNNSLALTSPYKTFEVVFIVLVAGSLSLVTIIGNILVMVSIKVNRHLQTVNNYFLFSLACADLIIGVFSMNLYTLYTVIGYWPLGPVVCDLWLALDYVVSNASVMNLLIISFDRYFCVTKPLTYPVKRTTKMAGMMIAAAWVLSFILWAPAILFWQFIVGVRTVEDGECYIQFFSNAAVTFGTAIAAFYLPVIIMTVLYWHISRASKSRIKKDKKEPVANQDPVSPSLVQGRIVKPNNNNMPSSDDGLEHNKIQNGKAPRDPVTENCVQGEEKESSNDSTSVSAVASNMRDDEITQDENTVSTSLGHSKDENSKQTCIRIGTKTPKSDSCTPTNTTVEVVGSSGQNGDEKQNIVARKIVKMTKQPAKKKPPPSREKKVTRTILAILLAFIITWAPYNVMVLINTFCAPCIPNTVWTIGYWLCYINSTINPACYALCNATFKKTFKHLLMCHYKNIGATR
- Type: functional, cell-based
parameterMeasured: AC50

[[record]]
molecule = "OC[C@H]1O[C@@](CO)(O[C@H]2O[C@H](CO)[C@@H](O)[C@H](O)[C@H]2O)[C@@H](O)[C@@H]1O"
parametermeasured = "AC50"
result = "> 30 µM"


Query string: Consider the molecule shown here: CC(=O)O[C@]1(C(C)=O)CC[C@H]2[C@@H]3C=C(C)C4=CC(=O)CC[C@@H]4[C@H]3CC[C@@]21C [NOMEGESTROL ACETATE] What is its recorded AC50?
Result string: > 30 µM

Query string: For CC(C(=O)O)c1ccc(CC2CCCC2=O)cc1 (centres undefined) then?
Result string: > 30 µM

Query string: Same thing, different molecule: CNCc1ccc(-c2[nH]c3cc(F)cc4c3c2CCNC4=O)cc1
Result string: > 10 µM
